- TEST TARGET: T1, Recombinant soluble extracellular domain of cynomolgus monkey MerTK (cynomolgus monkey, UniProt Q12866 21-505 (human entry))
- T1 construct: SPR analyte; also called cMerTK; Cynomolgus MerTK
- T1 chain: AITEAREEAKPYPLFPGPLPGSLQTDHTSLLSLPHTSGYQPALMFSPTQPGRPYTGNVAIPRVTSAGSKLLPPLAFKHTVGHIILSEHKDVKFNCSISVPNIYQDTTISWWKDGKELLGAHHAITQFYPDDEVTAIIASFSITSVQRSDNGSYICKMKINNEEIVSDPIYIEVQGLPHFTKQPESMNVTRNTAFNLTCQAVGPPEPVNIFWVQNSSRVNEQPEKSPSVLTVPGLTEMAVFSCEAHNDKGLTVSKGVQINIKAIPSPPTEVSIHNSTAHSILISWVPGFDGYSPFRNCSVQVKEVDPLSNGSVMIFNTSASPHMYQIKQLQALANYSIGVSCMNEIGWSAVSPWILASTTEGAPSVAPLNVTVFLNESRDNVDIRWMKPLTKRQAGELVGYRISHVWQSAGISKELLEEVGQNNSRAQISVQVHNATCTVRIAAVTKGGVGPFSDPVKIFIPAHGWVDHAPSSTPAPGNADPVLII
- ASSAY METHOD TEXT: SPR, mAb captured, soluble MerTK ECD as analyte, 37 C
Listed here are binders together with their documented pKd.
pKd is defined as minus the log10 of a concentration measured in mol/L.

BINDER: HuMAb 8N42 (antibody, V domains shown, Human anti-hMerTK mAb, Bin 1) VH: QVQLQQWGAGLLKPSETLSLTCAVYGGSFSIYYWSWIRQPPGKGLELIGEINDEGNTNYNPSLKSRVTISVDTSKNQFSLKLSSVTAADTAVYYCARGGTGDIHAFDIWGQGTMVTVSS VL: DIQMTQSPSSLSASVGDRVTITCRASQGISKWLAWYQQKPEKAPKSLIYAASSLQSGVPSRFSGSGSGTDFTLTISSLQPEDFATYYCQQYNSYPWTFGQGTKVEIKR
EXPERIMENTAL VALUE: 7.85

Prompt line: Requested field: pKd. Item: HuMAb 10K11 (antibody, human IgG1, kappa, V domains shown, Human anti-hMerTK mAb, Bin 1) VH: QLQLQESGPGLVKPSETLSLTCAVSGYSISSDYSWGWIRQPPGKGLEWIGSIYHSGNTYFNPSLKSRVTISVDTSKNQFSLKLSSVTAADTAVYYCARDKSYYFGPGSMDVWGQGTTVTVSS VL: AIQLTQSPSSLSASVGDRVTITCRASQGISSALAWYQQKPGKAPKLLIYDASSLESGVPSRFSGSGSGTDFTLTISSLQPEDFATYYCQQFKSYLTFGQGTRLEIKR
Response line: 7.65
